Assay: Cy5 fluorescence interference with SSB-bound oligo, artefact control for HCV NS3 helicase inhibitor project, biochemical, E. coli SSB, selected ChemBridge compounds (AID 720487);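 further: ratio of compound well signal to mean negative control signal so 1 means no effect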
Details: Cy5-dT15/E. coli SSB fluorescence interference; at 100 µM; actives lie on both sides
This is one part of the list.
// values below are reported fluorescence interference ratio
Form: value (number only, do not type unit).

Q. Specify fluorescence interference ratio for COc1cc(C=C2C(=O)NC(=O)NC2=O)ccc1OCCOc1ccc([N+](=O)[O-])cc1 and stop.
A. 0.897

Q. Specify fluorescence interference ratio for Cc1ccc(C(=O)NCCNc2ccc([N+](=O)[O-])cc2)cc1 and stop.
A. 0.915

Q. Specify fluorescence interference ratio for O=C(NC(=S)Nc1ccc(-c2nc3cc(Cl)ccc3o2)cc1)c1ccco1 and stop.
A. 0.991

Q. Specify fluorescence interference ratio for COc1cc(/C(O)=C(\C#N)c2nc3ccccc3n2C)cc(OC)c1OC and stop.
A. 0.913

Let's switch to this compound now.
Q. Specify fluorescence interference ratio for C=CCN1C(=O)/C(=C\c2cc(OC)c(O)c([N+](=O)[O-])c2)C(=O)NC1=S and stop.
A. 0.902
